Test: viability gain of MRP-1-high H69AR cells under doxorubicin, pilot screen, MRP-1 activator project, CellTiter-Glo, duplicate (AID 807);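 also: compound pretreatment 18-22 h then 72 h combined with doxorubicin; 0% = doxorubicin alone and 100% = vehicle without doxorubicin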
Conditions: H69AR viability with doxorubicin, CellTiter-Glo luminescence; at 10 µM; hits give high values
Quick reference: viability increase of the listed items.
Answer with a number only, understood to be in %.

{"compound": "COc1ccc(CCNc2nc(=O)[nH]nc2C)cc1OC", "endpointUnit": "%", "viability increase": -1.65}
{"compound": "CCCNC(=O)C(Cc1ccccc1)NS(=O)(=O)c1ccc2c(c1)CCC(=O)N2 (stereo unspecified)", "endpointUnit": "%", "viability increase": 0.26}
{"compound": "CCOC(=O)N1CCN(CC(=O)Nc2cc3c(cc2C(C)=O)OCO3)CC1", "endpointUnit": "%", "viability increase": -3.17}
{"compound": "CCn1c2c(c3cc(Cl)ccc31)CCCC2=O", "endpointUnit": "%", "viability increase": -0.32}

INPUT: Form field: reported viability increase of CCN1CCN(C(c2ccccc2)c2sc3nc(C)nn3c2O)CC1 (stereo unspecified)
OUTPUT: -1.49

INPUT: Form field: reported viability increase of CCOc1ccc(C2CC(c3cccc(OC)c3)n3nc(N)nc3N2)cc1 (stereo unspecified)
OUTPUT: 0.88

INPUT: Form field: reported viability increase of O=C(NC1CCCCC1)c1ccc(Br)o1
OUTPUT: -1.9

INPUT: Form field: reported viability increase of CC1(C)CC(=O)N(CC(=O)O)c2ccccc2S1(=O)=O
OUTPUT: -0.77

INPUT: Form field: reported viability increase of CCOC(=O)N1CCN(C(=O)c2cc(C)no2)CC1
OUTPUT: 1.34

INPUT: Form field: reported viability increase of Cc1ccc(CCNC(=O)CS(=O)Cc2nc(-c3cccc(C)c3)oc2C)cc1 (stereo unspecified)
OUTPUT: 2.47

INPUT: Form field: reported viability increase of CSCC[C@@H](C(=O)Nc1ccc2c(c1)OCCO2)N1Cc2ccccc2C1=O
OUTPUT: -2.91
